- System: Candida albicans
- Type: functional, 0304103
- experimental_conditions: time 48 hrs
- Description: Synergistic antifungal activity against azole-resistant Candida albicans 0304103 assessed as fractional inhibitory concentration in presence of fluconazole incubated for 48 hrs by CLSI based checkerboard microdilution assay
For each record, check the reported FIC: if it is below 4 µg/mL write t, else write f.

smiles_code=CC(C)c1cc(-c2n[nH]c(=O)n2-c2cccc(C(=O)NCCCCCC(=O)NO)c2)c(O)cc1O discrete_label=f
smiles_code=CC(C)c1cc(-c2n[nH]c(=O)n2-c2ccc(C(=O)NCCCCCCCC(=O)NO)cc2)c(O)cc1O discrete_label=t
smiles_code=CC(C)c1cc(-c2n[nH]c(=O)n2-c2cccc(C(=O)NCCCCC(=O)NO)c2)c(O)cc1O discrete_label=f
smiles_code=CC(C)c1cc(-c2n[nH]c(=O)n2-c2cccc(C(=O)NCCCCCCC(=O)NO)c2)c(O)cc1O discrete_label=t
smiles_code=CC(C)c1cc(-c2n[nH]c(=O)n2-c2cccc(NC(=O)CCCCCCC(=O)NO)c2)c(O)cc1O discrete_label=t
smiles_code=CC(C)c1cc(-c2n[nH]c(=O)n2-c2ccc(NC(=O)CCCCC(=O)NO)cc2)c(O)cc1O discrete_label=f
smiles_code=CC(C)c1cc(-c2n[nH]c(=O)n2-c2cccc(C(=O)NCCCC(=O)NO)c2)c(O)cc1O discrete_label=f
smiles_code=CC(C)c1cc(-c2n[nH]c(=O)n2-c2ccc(C(=O)NCCCC(=O)NO)cc2)c(O)cc1O discrete_label=t
smiles_code=CC(C)c1cc(-c2n[nH]c(=O)n2-c2ccc3c(ccn3C)c2)c(O)cc1O discrete_label=t

====

# FIC per record follows
- Test system: Candida albicans
- Format: functional, 0304103
- experimental_conditions: time 48 hrs
- Description: Synergistic antifungal activity against azole-resistant Candida albicans 0304103 assessed as fractional inhibitory concentration incubated for 48 hrs by CLSI based checkerboard microdilution assay
quantity_kind: FIC (µg/mL)

smiles_code=CC(C)c1cc(-c2n[nH]c(=O)n2-c2cccc(C(=O)NCCCCCCC(=O)NO)c2)c(O)cc1O quantity_kind=FIC uom=µg/mL relation_symbol== reading=8
smiles_code=CC(C)c1cc(-c2n[nH]c(=O)n2-c2ccc(NC(=O)CCCC(=O)NO)cc2)c(O)cc1O quantity_kind=FIC uom=µg/mL relation_symbol== reading=4
smiles_code=CC(C)c1cc(-c2n[nH]c(=O)n2-c2cccc(NC(=O)CCCCCCC(=O)NO)c2)c(O)cc1O quantity_kind=FIC uom=µg/mL relation_symbol== reading=8
smiles_code=CC(C)c1cc(-c2n[nH]c(=O)n2-c2ccc(C(=O)NCCCC(=O)NO)cc2)c(O)cc1O quantity_kind=FIC uom=µg/mL relation_symbol== reading=16
smiles_code=CC(C)c1cc(-c2n[nH]c(=O)n2-c2ccc(NC(=O)CCCCCCC(=O)NO)cc2)c(O)cc1O quantity_kind=FIC uom=µg/mL relation_symbol== reading=8
smiles_code=CC(C)c1cc(-c2n[nH]c(=O)n2-c2cccc(C(=O)NCCCCC(=O)NO)c2)c(O)cc1O quantity_kind=FIC uom=µg/mL relation_symbol== reading=16
smiles_code=CC(C)c1cc(-c2n[nH]c(=O)n2-c2ccc(C(=O)NCCCCCC(=O)NO)cc2)c(O)cc1O quantity_kind=FIC uom=µg/mL relation_symbol=> reading=64
smiles_code=CC(C)c1cc(-c2n[nH]c(=O)n2-c2cccc(NC(=O)CCCCCC(=O)NO)c2)c(O)cc1O quantity_kind=FIC uom=µg/mL relation_symbol== reading=64
smiles_code=CC(C)c1cc(-c2n[nH]c(=O)n2-c2ccc(C(=O)NCCCCCCC(=O)NO)cc2)c(O)cc1O quantity_kind=FIC uom=µg/mL relation_symbol== reading=16
smiles_code=CC(C)c1cc(-c2n[nH]c(=O)n2-c2ccc(C(=O)NCCCCCCCC(=O)NO)cc2)c(O)cc1O quantity_kind=FIC uom=µg/mL relation_symbol== reading=16

Data provenance is ChEMBL document CHEMBL5143528.
